List of Percent Effect values.
Test system: Trypanosoma cruzi
Assay: Trypanosoma cruzi phosphomannomutase and mannose-1-phosphate guanylyltransferase assay
Type: functional
Set-up: scale not given: direction of the effect not stated beside the values
Conditions: 10 µM
State just the number; it will be interpreted in %.

Study these solved cases before continuing.
CCn1cnnc1CNC(=O)N1CCC(C(=O)NC)CC1 | -4.42
CS(=O)(=O)N1CCc2nc(NC(=O)Nc3c(F)cccc3F)sc2C1 | -5.49
O=C(NCC1CC1)C1CSCN1S(=O)(=O)c1cccc(F)c1 (stereo unspecified) | 2.94
Cc1cccc(NC(=O)NCCCn2nc3ccccn3c2=O)c1C | 0.0943
CCS(=O)(=O)N1CC[C@H](OC)[C@@H]1Cc1ccncc1 | -4.59

Now for another entry.
// map Cc1cn2c(n1)CCC(NC(=O)CCn1cncn1)C2 (stereo unspecified) to recorded Percent Effect (system: Trypanosoma cruzi) -3.64
